Recorded measurements of Inhibition, one per entry
biological target: Nitric oxide synthase 1 (Homo sapiens) (UniProt P29475); assay: Inhibitory activity against Neuronal nitric oxide synthase
Sequence (P29475 whole entry): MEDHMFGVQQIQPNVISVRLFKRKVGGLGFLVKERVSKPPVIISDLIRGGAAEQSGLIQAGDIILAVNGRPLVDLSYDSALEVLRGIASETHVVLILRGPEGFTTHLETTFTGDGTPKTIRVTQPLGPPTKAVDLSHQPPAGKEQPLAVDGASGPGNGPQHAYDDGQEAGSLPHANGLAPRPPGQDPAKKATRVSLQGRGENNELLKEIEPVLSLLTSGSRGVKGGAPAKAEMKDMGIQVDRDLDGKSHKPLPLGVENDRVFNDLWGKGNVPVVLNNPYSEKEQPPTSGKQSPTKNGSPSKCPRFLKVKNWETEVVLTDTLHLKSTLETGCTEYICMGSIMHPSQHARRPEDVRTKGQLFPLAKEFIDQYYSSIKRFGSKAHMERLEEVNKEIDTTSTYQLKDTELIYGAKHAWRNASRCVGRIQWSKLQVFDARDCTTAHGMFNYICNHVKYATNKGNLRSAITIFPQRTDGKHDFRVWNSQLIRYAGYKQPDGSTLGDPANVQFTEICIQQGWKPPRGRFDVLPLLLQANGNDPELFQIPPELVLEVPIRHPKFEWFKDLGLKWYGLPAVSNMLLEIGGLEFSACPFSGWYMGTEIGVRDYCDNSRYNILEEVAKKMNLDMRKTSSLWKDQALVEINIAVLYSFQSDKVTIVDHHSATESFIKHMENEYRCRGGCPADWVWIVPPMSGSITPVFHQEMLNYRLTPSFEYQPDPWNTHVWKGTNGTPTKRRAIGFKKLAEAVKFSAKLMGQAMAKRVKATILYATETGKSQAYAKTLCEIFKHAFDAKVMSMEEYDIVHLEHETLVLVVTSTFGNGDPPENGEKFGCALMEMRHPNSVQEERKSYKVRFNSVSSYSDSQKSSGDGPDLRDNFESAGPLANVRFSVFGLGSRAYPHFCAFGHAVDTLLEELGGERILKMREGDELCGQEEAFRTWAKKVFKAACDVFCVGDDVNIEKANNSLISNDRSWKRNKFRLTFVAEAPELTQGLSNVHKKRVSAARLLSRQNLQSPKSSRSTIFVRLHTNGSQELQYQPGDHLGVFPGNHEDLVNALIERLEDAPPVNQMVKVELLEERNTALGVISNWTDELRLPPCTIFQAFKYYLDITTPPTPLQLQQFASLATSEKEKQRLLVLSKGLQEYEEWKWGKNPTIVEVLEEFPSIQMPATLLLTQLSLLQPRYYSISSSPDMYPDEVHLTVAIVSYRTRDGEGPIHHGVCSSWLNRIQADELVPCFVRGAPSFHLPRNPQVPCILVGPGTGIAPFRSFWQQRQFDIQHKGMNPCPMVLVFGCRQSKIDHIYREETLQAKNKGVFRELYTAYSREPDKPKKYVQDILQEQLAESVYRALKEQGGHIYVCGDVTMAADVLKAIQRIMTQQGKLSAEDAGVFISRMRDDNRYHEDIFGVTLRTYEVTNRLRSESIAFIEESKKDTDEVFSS
Just the number please, in µM, no unit attached.

                                item_smiles    property  result_units  readout_value
0              Cc1ccc2oc(=O)c3cc(N)ccc3c2c1  Inhibition            µM            900
1  O=c1oc2ccc(CBr)cc2c2ccc([N+](=O)[O-])cc12  Inhibition            µM            250
2          Nc1ccc2c(c1)c(=O)oc1ccc(CBr)cc12  Inhibition            µM            200

Then this molecule:
### Prompt Fill in: Inhibition of O=[N+]([O-])c1cccc2cn[nH]c12 is ___
### Response 15

* * *

Recorded measurements of Inhibition, one per entry
Target: Nitric oxide synthase 3 (Homo sapiens) (UniProt P29474)
Sequence (whole entry): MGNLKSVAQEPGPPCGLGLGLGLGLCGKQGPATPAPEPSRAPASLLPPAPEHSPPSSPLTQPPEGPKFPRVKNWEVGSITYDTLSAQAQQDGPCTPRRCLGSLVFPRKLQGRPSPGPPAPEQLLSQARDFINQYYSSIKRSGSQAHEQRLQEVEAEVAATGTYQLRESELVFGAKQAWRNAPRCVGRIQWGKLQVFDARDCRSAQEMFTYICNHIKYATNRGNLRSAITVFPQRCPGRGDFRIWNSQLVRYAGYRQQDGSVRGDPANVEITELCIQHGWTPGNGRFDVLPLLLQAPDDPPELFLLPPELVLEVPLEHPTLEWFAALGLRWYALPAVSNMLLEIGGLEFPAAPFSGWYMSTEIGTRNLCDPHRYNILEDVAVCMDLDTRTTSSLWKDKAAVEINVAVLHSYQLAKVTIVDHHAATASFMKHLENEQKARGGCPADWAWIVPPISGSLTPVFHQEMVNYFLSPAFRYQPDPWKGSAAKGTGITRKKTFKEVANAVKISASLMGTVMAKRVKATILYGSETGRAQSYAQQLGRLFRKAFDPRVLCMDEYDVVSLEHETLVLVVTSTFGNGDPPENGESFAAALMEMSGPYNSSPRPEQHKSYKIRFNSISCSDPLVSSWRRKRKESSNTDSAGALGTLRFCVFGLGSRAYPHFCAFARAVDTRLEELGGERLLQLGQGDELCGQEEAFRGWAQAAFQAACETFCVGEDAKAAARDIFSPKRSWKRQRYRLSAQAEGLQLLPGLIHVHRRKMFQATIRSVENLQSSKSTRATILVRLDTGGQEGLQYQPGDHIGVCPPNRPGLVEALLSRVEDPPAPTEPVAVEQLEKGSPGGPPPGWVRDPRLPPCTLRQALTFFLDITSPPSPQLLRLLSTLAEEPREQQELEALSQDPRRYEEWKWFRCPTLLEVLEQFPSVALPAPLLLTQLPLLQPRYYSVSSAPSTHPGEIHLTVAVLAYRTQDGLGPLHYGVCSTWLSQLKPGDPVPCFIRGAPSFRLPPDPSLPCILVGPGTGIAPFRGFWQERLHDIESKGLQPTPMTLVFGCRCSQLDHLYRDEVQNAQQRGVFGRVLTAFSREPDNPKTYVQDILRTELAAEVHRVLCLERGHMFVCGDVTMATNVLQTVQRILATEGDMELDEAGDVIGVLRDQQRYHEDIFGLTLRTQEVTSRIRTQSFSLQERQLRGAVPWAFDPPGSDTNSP
Assay: Inhibitory activity against Endothelial nitric oxide synthase
Provide a numeric answer, followed by its unit.

Here is how some molecules turned out for Inhibition.
                                item_smiles  readout_value
0              O=[N+]([O-])c1cccc2cn[nH]c12           8 µM
1          Nc1ccc2c(c1)c(=O)oc1ccc(CBr)cc12         120 µM
2  O=c1oc2ccc(CBr)cc2c2ccc([N+](=O)[O-])cc12         120 µM

Then this molecule:
### Prompt Fill in: Inhibition of Cc1ccc2oc(=O)c3cc(N)ccc3c2c1 is ___
### Response 600 µM
